target: LepB Δ2-76 His-SUMO (Escherichia coli) (UniProt P00803); assay: SPR; LepB Δ2-76 His-SUMO amine-coupled (EDC/NHS) to a CDH chip, Pioneer FE; OneStep method with 75% of the loop; peptides flowed at 50 μM, 50 μL/min, 180 s dissociation; regeneration with Tris-EDTA; triplicate
METRIC: kon (M⁻¹ s⁻¹)

Here's what some known entries look like.
GGTWAAFNDV [peptide 03]: 146000
AAFE [peptide 11]: 15900
TWAAFN [peptide 07]: 60400

I: VGGGTWAAFETL [peptide 02]
II: TWAAIE [peptide 08]
Lower value of kon belongs to which: I or II ? Field: selected label. Fill in the label of the entry you choose.
I
(I: 1140 M⁻¹ s⁻¹, II: 2500 M⁻¹ s⁻¹)

P: GGGTWAAFEEGK [peptide 01]
Q: GGGTWAAIE [peptide 06]
Please compare: P and Q . Report which one has the smaller kon value. Your answer should be the label attached to the chosen record.
Q
